Hello, the source for this data is ChEMBL document CHEMBL1155099, in case you need it.

Below, each entry is listed with its recorded MIC.
system: Cryptococcus neoformans; assay: Antifungal activity against Cryptococcus neoformans at by almar blue dye reduction assay; assay type: functional

# entry smiles, MIC
data = [
    ("CCCCN(CC#Cc1cn([C@H](C)C[C@@H]2CC[C@H]([C@@H](C)C(=O)N(C)Cc3ccccc3)O2)nn1)CCCC", "250 µg/mL"),
    ("C[C@H](C[C@@H]1CC[C@H]([C@@H](C)C(=O)N(C)Cc2ccccc2)O1)n1cc(C#CCC2CCCC2)nn1", "219 µg/mL"),
    ("CCCCCC#Cc1cn([C@H](C)C[C@@H]2CC[C@H]([C@@H](C)C(=O)N(C)Cc3ccccc3)O2)nn1", "430 µg/mL"),
    ("C[C@H](C[C@@H]1CC[C@H]([C@@H](C)C(=O)N(C)Cc2ccccc2)O1)n1cc(C#CCN(C)CCc2ccccc2)nn1", "500 µg/mL"),
]

###

test system: Bacillus cereus; assay: Antibacterial activity against Bacillus cereus at 1 mM by almar blue dye reduction assay; type: functional, organism-based
Calls of active or inactive are those of the source. No rule for the calls is given here.

# compound, target system, Activity
records = [
    ("COCC#Cc1cn([C@H](C)C[C@@H]2CC[C@H]([C@@H](C)C(=O)NC(C)C)O2)nn1", "Bacillus cereus", "inactive"),
    ("C[C@H](C[C@@H]1CC[C@H]([C@@H](C)C(=O)N2CCN(CC3CCCO3)CC2)O1)n1cc(C#Cc2ccccn2)nn1 (some centres undefined)", "Bacillus cereus", "inactive"),
    ("CCN(CC)C(=O)[C@H](C)[C@H]1CC[C@@H](C[C@@H](C)n2cc(C#Cc3ccc(Oc4ccccc4)cc3)nn2)O1", "Bacillus cereus", "inactive"),
    ("C[C@H](C[C@@H]1CC[C@H]([C@@H](C)C(=O)N(C)Cc2ccccc2)O1)n1cc(C#CCOc2ccc(C(F)(F)F)cc2)nn1", "Bacillus cereus", "inactive"),
]

###

system: Saccharomyces cerevisiae; test: Antifungal activity against Saccharomyces cerevisiae by almar blue dye reduction assay; format: functional

# compound, MIC, µg/mL
data = [
    ("CCOC(=O)C#Cc1cn([C@H](C)CC2CCC([C@@H](C)C(=O)N3CCN(CC4CCCO4)CC3)O2)nn1 (single isomer, unassigned)", 240),
    ("CCCCCC#Cc1cn([C@H](C)C[C@@H]2CC[C@H]([C@@H](C)C(=O)N(C)Cc3ccccc3)O2)nn1", 430),
    ("C[C@H](C[C@@H]1CC[C@H]([C@@H](C)C(=O)N2CCN(CC3CCCO3)CC2)O1)n1cc(C#CCOc2cccc(-c3ccccc3)c2)nn1 (some centres undefined)", 290),
    ("C[C@H](C[C@@H]1CC[C@H]([C@@H](C)C(=O)N(C)Cc2ccccc2)O1)n1cc(C#CCC2CCCC2)nn1", 220),
]

###

test system: Cryptococcus neoformans; experiment: Antifungal activity against Cryptococcus neoformans at 1 mM by almar blue dye reduction assay; assay type: functional, organism-based
The source made the active and inactive calls. How the calls were made is not given here.
result type: Activity

# molecule, target system, readout value
measured = [
    ("CCCCCC#Cc1cn([C@H](C)C[C@@H]2CC[C@H]([C@@H](C)C(=O)NC(C)C)O2)nn1", "Cryptococcus neoformans", "inactive"),
    ("CCCNC(=O)NCC#Cc1cn([C@H](C)CC2CCC([C@@H](C)C(=O)NC(C)C)O2)nn1 (single isomer, unassigned)", "Cryptococcus neoformans", "inactive"),
    ("CC(C)NC(=O)[C@H](C)[C@H]1CC[C@@H](C[C@@H](C)n2cc(C#CCOc3ccc(C(F)(F)F)cc3)nn2)O1", "Cryptococcus neoformans", "inactive"),
    ("CC(C)NC(=O)[C@H](C)[C@H]1CC[C@@H](C[C@@H](C)n2cc(C#CCN3CCC(c4ccccc4)CC3)nn2)O1", "Cryptococcus neoformans", "inactive"),
    ("COCCNCC#Cc1cn([C@H](C)C[C@@H]2CC[C@H]([C@@H](C)C(=O)N(C)Cc3ccccc3)O2)nn1", "Cryptococcus neoformans", "inactive"),
    ("C[C@H](CC1CCC([C@@H](C)C(=O)N2CCN(CC3CCCO3)CC2)O1)n1cc(C#CCNC(=O)OCc2ccccc2)nn1 (single isomer, unassigned)", "Cryptococcus neoformans", "inactive"),
    ("C[C@H](C[C@@H]1CC[C@H]([C@@H](C)C(=O)N2CCN(CC3CCCO3)CC2)O1)n1cc(C#CCOc2ccc(C(F)(F)F)cc2)nn1 (some centres not stated)", "Cryptococcus neoformans", "inactive"),
]

###

system: Staphylococcus aureus; test: Antibacterial activity against Staphylococcus aureus at 1 mM by almar blue dye reduction assay; format: functional, organism-based
Calls of active or inactive are those of the source. No rule for the calls is given here.

# molecule, Activity
rows = [
    ("CC(C)CC#Cc1cn([C@H](C)C[C@@H]2CC[C@H]([C@@H](C)C(=O)NC(C)C)O2)nn1", "inactive"),
    ("CCN(CC)C(=O)[C@H](C)[C@H]1CC[C@@H](C[C@@H](C)n2cc(C#CCN(C)C)nn2)O1", "inactive"),
    ("CCCCN(CC#Cc1cn([C@H](C)C[C@@H]2CC[C@H]([C@@H](C)C(=O)NC(C)C)O2)nn1)CCCC", "inactive"),
    ("C[C@H](C[C@@H]1CC[C@H]([C@@H](C)C(=O)N2CCCC2)O1)n1cc(C#Cc2ccc(-c3ccccc3)cc2)nn1", "inactive"),
    ("C[C@H](C[C@@H]1CC[C@H]([C@@H](C)C(=O)N2CCN(CC3CCCO3)CC2)O1)n1cc(C#Cc2ccc(Oc3ccccc3)cc2)nn1 (stereo not given in full)", "inactive"),
    ("CC(C)NC(=O)[C@H](C)[C@H]1CC[C@@H](C[C@@H](C)n2cc(C#Cc3ccccc3)nn2)O1", "inactive"),
    ("CCCCCC#Cc1cn([C@H](C)C[C@@H]2CC[C@H]([C@@H](C)C(=O)N(C)Cc3ccccc3)O2)nn1", "inactive"),
    ("CC(C)CC#Cc1cn([C@H](C)C[C@@H]2CC[C@H]([C@@H](C)C(=O)N(C)Cc3ccccc3)O2)nn1", "inactive"),
    ("Cc1cccc(NC(=O)OCC#Cc2cn([C@H](C)CC3CCC([C@@H](C)C(=O)N(C)Cc4ccccc4)O3)nn2)c1 (single isomer, unassigned)", "inactive"),
    ("C[C@H](C[C@@H]1CC[C@H]([C@@H](C)C(=O)N2CCN(CC3CCCO3)CC2)O1)n1cc(C#CCN2CCN(c3ccccc3)CC2)nn1 (stereo not given in full)", "inactive"),
    ("C[C@H](C[C@@H]1CC[C@H]([C@@H](C)C(=O)N2CCCC2)O1)n1cc(C#CCN2CCC(c3ccccc3)CC2)nn1", "inactive"),
    ("C[C@H](C[C@@H]1CC[C@H]([C@@H](C)C(=O)N2CCN(CC3CCCO3)CC2)O1)n1cc(C#CCN(C)C)nn1 (stereo not given in full)", "inactive"),
    ("CCCCN(CC#Cc1cn([C@H](C)C[C@@H]2CC[C@H]([C@@H](C)C(=O)N3CCCC3)O2)nn1)CCCC", "inactive"),
    ("COc1ccc(OCC#Cc2cn([C@H](C)C[C@@H]3CC[C@H]([C@@H](C)C(=O)N4CCCC4)O3)nn2)cc1", "inactive"),
    ("CC(C)NC(=O)[C@H](C)[C@H]1CC[C@@H](C[C@@H](C)n2cc(C#Cc3ccccn3)nn2)O1", "inactive"),
]

###

system: Staphylococcus aureus; assay: Antibacterial activity against Staphylococcus aureus at 1 mM by almar blue dye reduction assay; format: functional, organism-based
Activity calls are given as the source filed them. No rule for the calls is given here.
result type: Activity

# compound, readout value
rows = [
    ("CCOC(=O)C#Cc1cn([C@H](C)CC2CCC([C@@H](C)C(=O)N(CC)CC)O2)nn1 (single isomer, unassigned)", "inactive"),
    ("CCN(CC)C(=O)[C@H](C)C1CCC(C[C@@H](C)n2cc(C#CCNC(=O)Nc3cccc(C)c3)nn2)O1 (single isomer, unassigned)", "inactive"),
    ("CCN(CC)C(=O)[C@H](C)[C@H]1CC[C@@H](C[C@@H](C)n2cc(C#Cc3cccc4ccccc34)nn2)O1", "inactive"),
    ("CCCCCC#Cc1cn([C@H](C)C[C@@H]2CC[C@H]([C@@H](C)C(=O)N3CCN(CC4CCCO4)CC3)O2)nn1 (some centres undefined)", "inactive"),
]

###

test system: Candida albicans; experiment: Antifungal activity against Candida albicans at 1 mM by almar blue dye reduction assay; format: functional, organism-based
Activity calls are given as the source filed them. The rule behind the calls is not given here.

# compound, Activity
rows = [
    ("CCCNC(=O)NCC#Cc1cn([C@H](C)CC2CCC([C@@H](C)C(=O)N(C)Cc3ccccc3)O2)nn1 (single isomer, unassigned)", "inactive"),
    ("CC(C)NC(=O)[C@H](C)[C@H]1CC[C@@H](C[C@@H](C)n2cc(C#Cc3ccccc3)nn2)O1", "inactive"),
    ("COCC#Cc1cn([C@H](C)C[C@@H]2CC[C@H]([C@@H](C)C(=O)NC(C)C)O2)nn1", "inactive"),
    ("C[C@H](C[C@@H]1CC[C@H]([C@@H](C)C(=O)N(C)Cc2ccccc2)O1)n1cc(C#CCOc2cccc(-c3ccccc3)c2)nn1", "inactive"),
    ("COc1ccc(OCC#Cc2cn([C@H](C)C[C@@H]3CC[C@H]([C@@H](C)C(=O)NC(C)C)O3)nn2)cc1", "inactive"),
    ("CC(C)NC(=O)[C@H](C)[C@H]1CC[C@@H](C[C@@H](C)n2cc(C#Cc3cccc4ccccc34)nn2)O1", "inactive"),
    ("COc1ccc(C#Cc2cn([C@H](C)C[C@@H]3CC[C@H]([C@@H](C)C(=O)NC(C)C)O3)nn2)cc1", "inactive"),
]
